Exercise: for every item that follows, state its recorded composite z-score.
# tgt: Torsin-1A-interacting protein 2 (Homo sapiens)
# protocol: small molecules binding lysate-expressed LULL1 – cell lysate, human LULL1 lysate, 635/667 nm fluorescence, primary screen (AID 1092);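 also: probe is lysate of COS7 cells overexpressing human LULL1; score merges per-feature 667 nm fluorescence with signal-to-noise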
# test-parameters: small-molecule microarray, hLULL1 lysate binding, 635 nm fluorescence; higher = more signal
Give bare numbers.

Value sought for every listed compound: composite z-score.
1. CN(C)CCCCNC(=O)[C@H]1C[C@H]2C(=O)N[C@@H](CCCC[N+](C)(C)C)C(=O)N2[C@H]1c1cccc(OCCO)c1
2. NC(=O)NCC#Cc1ccc2c(c1)[C@]1(C(=O)N2)[C@H](c2ccc(O)cc2)N2[C@H](c3ccccc3)[C@H](c3ccccc3)OC(=O)[C@H]2[C@@H]1C(N)=O
3. COC(=O)[C@@]1(Cc2ccc(F)cc2)[C@H]2c3cc(C(=O)N4CCCC4)n(Cc4ccccc4)c3C[C@H]2CN1C(=O)c1ccccc1

Output:
1: 2.05; 2: 1.46; 3: 3.22

====

Exercise: for every item that follows, state its recorded z-score.
# protocol: blockers of DNA damage checkpoint Chk1 activation – imaging, HeLa, hydroxyurea, phospho-Chk1 antibody, percent positive cells, primary screen (AID 1186)
# test-parameters: hydroxyurea-induced phospho-Chk1 immunofluorescence imaging, higher = more signal
Give bare numbers.

COc1ccc(C(=O)Nc2ccc(CN3C(=O)[C@@]4(O[C@@H](CC(=O)N5Cc6ccccc6C[C@H]5CO)[C@H]([Si](C)(C)c5ccc(OC)cc5)[C@H]4C)c4ccccc43)cc2)cc1    0.175
CC1=C2[C@@H](CCc3ccccc3)OB(O)C[C@@H]2[C@@H]2C(=O)C=CC(=O)[C@@H]2C1    1.15

Proceeding to the next molecule to report its z-score.
Task: # query: z-score of entry C=CCC(OC(C)=O)[C@@H]1[C@@H](N(Cc2cccc3ccccc23)C(=O)c2ccc(C)cc2)c2cc(OCCCO)ccc2N1C(=O)c1ccc2ccccc2c1 (stereo partly drawn)
Output: -0.995

====

# protocol: JC-1 mitochondrial signal, unstimulated myeloma cells – cell-based, JC-1 fluorescence, RPMI8226, 24 h, 100 nL compound, profiling panel (AID 1169); also: test concentration not given here
# test-parameters: JC-1 mitochondrial potential fluorescence, higher = more signal
Exercise: for every item that follows, state its recorded z-score.
Numbers only.

Value sought for every listed compound: z-score.
1. CC(=O)NCCCC[C@@H]1NC(=O)[C@@H]2C[C@H](C(=O)NCCCC[N+](C)(C)C)[C@H](c3cccc(OCCO)c3)N2C1=O
2. C=CCC(OC(C)=O)[C@@H]1[C@@H](N(Cc2ccc(-c3ccccc3)cc2)C(=O)c2cccc3ccccc23)c2cc(OCCCO)ccc2N1C(=O)c1ccc2ccccc2n1 (stereo partly specified)
3. C=CC[C@]1(C(=O)NCC(O)CO)N=C(c2ccc(OCCCO)cc2)O[C@H]1c1ccccc1N=[N+]=[N-] (stereo partly specified)
4. COCCOC(=O)N1C(=O)[C@@]2(c3cc(C#CCCO)ccc31)[C@H](c1ccc(OCCO)cc1)N1[C@H](c3ccccc3)[C@H](c3ccccc3)OC(=O)[C@H]1[C@@H]2C(=O)N1CCc2cc(OC)c(OC)cc2C1
5. C[N+](C)(C)CCCCCCNC(=O)[C@@H]1C[C@@H]2C(=O)NCC(=O)N2[C@@H]1c1cccc(OCCO)c1

Output:
0.287
-0.0127
-0.49
-0.299
-0.0934

Task: # query: z-score of entry "O=C1O[C@H](c2ccccc2)[C@H](c2ccccc2)N2[C@H]1[C@@H](C(=O)N1CCCCCCC1)[C@]1(C(=O)Nc3ccccc31)[C@H]2c1ccc(O)cc1"
Output: -0.536

====

# protocol: JC-1 mitochondrial signal, unstimulated HepG2 cells – cell-based, JC-1 fluorescence, 24 h, 100 nL compound, profiling panel (AID 1167); also: test concentration not given here
# test-parameters: HepG2 mitochondrial potential, higher = more signal
outcome-measure: z-score
One number for each entry.

Answered examples (10):
CC(=O)NCCCC[C@@H]1NC(=O)[C@@H]2C[C@H](C(=O)NCCCC[N+](C)(C)C)[C@H](c3cccc(OCCO)c3)N2C1=O    -0.851
CC(C)(C)OC(=O)CC[C@@]1(C(=O)N2CCCCC2)N=C(c2ccc(OCCCO)cc2)O[C@@H]1c1ccccc1CN=[N+]=[N-]    2.12
O=C1N(CCS(=O)(=O)c2ccccc2)Cc2ccccc2C[C@@]12COC(c1ccc(OCCCO)cc1)=N2    -1.08
COC(=O)[C@@]1(Cc2ccc(OC)cc2)[C@H]2c3cc(C(=O)N(C)C)n(Cc4cc(C)n(C)n4)c3C[C@H]2CN1C(=O)c1ccccc1    1.57
CC(C)N1CC=CC23O[C@@H]4C=CCOC(=O)[C@@H]4[C@H]2C(=O)N(CCCCCCO)[C@@H]3C1=O (some centres undefined)    -0.202
COC(=O)[C@@]1(Cc2ccc(OC)cc2)[C@H]2c3cc(C(=O)N(C)C)n(CCF)c3C[C@H]2CN1C(=O)c1ccccc1    1.49
CC(C)NC(=O)[C@@]1(Cc2ccccc2I)c2ccccc2C(=O)N(Cc2ccccc2C(F)(F)F)[C@H]1c1ccc(CO)cc1    0.347
COCCOC(=O)N1C(=O)[C@@]2(c3cc(C#CCNC(N)=O)ccc31)[C@H](c1ccc(OCCO)cc1)N1[C@H](c3ccccc3)[C@H](c3ccccc3)OC(=O)[C@H]1[C@@H]2C(=O)N1CCN(c2ncccn2)CC1    -1.76
O=C1c2ccccc2[C@](Cc2ccccc2I)(C(=O)NC2CC2)[C@H](c2ccc(CO)cc2)N1Cc1ccccc1Cl    0.833
C[N+](C)(C)CCCCNC(=O)[C@H]1C[C@H]2C(=O)NCC(=O)N2[C@H]1c1ccc(O)cc1    0.227

Value sought for every listed compound: z-score.
1. C=CCOC(=O)[C@@H]1[C@H]2C(=O)O[C@H](c3ccccc3)[C@H](c3ccccc3)N2[C@H](c2ccc(OCCOC(=O)[C@@H]3C[C@@H]4C(=O)N5CCC[C@H]5C(=O)N4[C@@H]3c3cccc(OCCO)c3)cc2)[C@@]12C(=O)Nc1ccc(I)cc12
2. CN1C(=O)C2C=CC(C(O)C3CCCCC3)N(N(c3ccccc3)c3ccccc3)C2C1=O (centres undefined)
3. CC(C)CN1C(=O)[C@@]2(Cc3ccccc31)c1ccccc1C(=O)N(Cc1ccccc1)[C@H]2c1ccc(CO)cc1
4. C[C@@]1([C@@H](NC(=O)c2cccs2)c2ccc(-c3ccccc3)cc2)C[C@H]1C1CCCCC1

Output:
[-0.853, -0.954, -0.529, -0.734]

====

# protocol: growth modulation of vineyard yeast isolate – strain RM11-1a, OD600, basal, 24 h, primary screen (AID 1177);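 also: cultures grown under basal conditions with no added stressor; test concentration not given here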
# test-parameters: S. cerevisiae RM11-1a growth, OD600, 24 h; higher = more signal, called active from +8 up or from −8 down
Would you please tag the item Yes when its z-score is -0.3 or above, and No when it is below?

O=C(CS)NCCCCCNC(=O)[C@@H]1C[C@@H]2C(=O)N3CCC[C@H]3C(=O)N2[C@@H]1c1ccc(O)cc1    Yes
C[N+](C)(C)CCCCCCNC(=O)[C@@H]1C[C@@H]2C(=O)NCC(=O)N2[C@@H]1c1cccc(OCCO)c1    Yes
[N-]=[N+]=NCc1ccccc1C[C@]1(C(=O)NCCN2CCOCC2)N=C(c2ccc(OCCCO)cc2)O[C@H]1c1ccccc1    No

Task: Item CCCCC(O)C1C=CC2C(=O)N(Cc3ccccc3)C(=O)C2N1n1cnnc1 (configuration not stated) with z-score of -0.3 or above?
Output: No

Task: Item O=C1NC(=O)C2C1C=CC(C(O)c1ccc(-c3ccccc3)s1)N2Nc1ccccn1 (configuration not stated) with z-score of -0.3 or above?
Output: Yes

Task: Item "COCCOC(=O)N1C(=O)[C@@]2(c3cc(C#CCNC(N)=O)ccc31)[C@H](C(=O)N1CCCCCCC1)[C@H]1C(=O)O[C@H](c3ccccc3)[C@H](c3ccccc3)N1[C@@H]2c1ccc(OCCO)cc1" with z-score of -0.3 or above?
Output: Yes

Task: Item "COc1ccc([Si](C)(C)[C@@H]2[C@@H](CC(=O)N3Cc4ccccc4C[C@H]3CO)O[C@]3(C(=O)N(Cc4cccc(N5CCCCC5=O)c4)c4ccccc43)[C@H]2C)cc1" with z-score of -0.3 or above?
Output: Yes

====

# tgt: Follistatin-related protein 3 (Homo sapiens) (UniProt O95633)
# Sequence (O95633 whole entry, looked up): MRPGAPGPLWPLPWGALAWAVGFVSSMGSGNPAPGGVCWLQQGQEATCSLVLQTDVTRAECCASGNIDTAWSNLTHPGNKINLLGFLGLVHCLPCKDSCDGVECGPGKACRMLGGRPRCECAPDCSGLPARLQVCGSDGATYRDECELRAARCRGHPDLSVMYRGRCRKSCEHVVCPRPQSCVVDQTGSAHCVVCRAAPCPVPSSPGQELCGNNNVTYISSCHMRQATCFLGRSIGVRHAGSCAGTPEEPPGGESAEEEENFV
# protocol: compounds binding follistatin-related protein 3 – biochemical, small-molecule microarray, 635 nm fluorescence, primary screen (AID 1105);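 also: score merges emission near 667 nm and signal to noise per printed spot across three slides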
# test-parameters: FSTL3 binding, higher = more signal
Exercise: for every item that follows, state its recorded composite z-score.
One number for each entry.

Answered examples (8):
COc1ccc([Si](C)(C)[C@H]2[C@H](CCO)O[C@@]3(C(=O)N(Cc4cccc(N5CCOC5=O)c4)c4ccccc43)[C@@H]2C)cc1    0.493
COc1cccc(C[C@H]2C[C@@H](CO[Si](C(C)C)(C(C)C)C(C)C)N3C(=O)[C@]4(C(C)=O)O[C@]23[C@H]2C(=O)N(C)C(=O)[C@H]24)c1    1.09
O=C1NC(=O)C2C1C=CC(C(O)c1ccc(-c3ccccc3)s1)N2Nc1ccccn1 (stereo not given)    0.561
CN(C)C(=O)[C@@]1(CCC(=O)OC(C)(C)C)COC(c2ccc(OCCCO)cc2)=N1    -0.326
CCCCCCCCCCC(O)C1C=CC2C(=O)NC(=O)C2N1Nc1ccccn1 (stereo not given)    -0.448
NC(=O)NCC#Cc1ccc2c(c1)[C@]1(C(=O)N2)[C@H](c2ccc(O)cc2)N2[C@H](c3ccccc3)[C@H](c3ccccc3)OC(=O)[C@H]2[C@@H]1C(N)=O    -0.934
C=CCN1C(=O)[C@@]2(O[C@@H](CCO)[C@H]([Si](C)(C)c3ccc(OC)cc3)[C@H]2C)c2cc(NC(=O)[C@H](C)O)ccc21    0.254
COc1cc(C(O)C2C=CC3C(=O)NC(=O)C3N2Nc2ccc(Cl)cc2Cl)cc(OC)c1OC (stereo not given)    1.28

Value sought for every listed compound: composite z-score.
1. O=C1C2C=CC(C(O)c3cccc4ccccc34)N(Nc3ccccc3)C2C(=O)N1c1ccccc1 (stereo not given)
2. Cc1ccc(N2C(=O)c3ccccc3[C@](C)(C(=O)NC(C)C)[C@@H]2c2ccc(CO)cc2)nc1
3. CC(=O)NCCCC[C@@H]1NC(=O)[C@@H]2C[C@H](C(=O)NCCCC[N+](C)(C)C)[C@H](c3cccc(OCCO)c3)N2C1=O
4. [N-]=[N+]=Nc1ccccc1C[C@]1(C(=O)NCCN2CCOCC2)N=C(c2ccc(OCCCO)cc2)O[C@H]1c1ccccc1N=[N+]=[N-]
5. COc1ccc([Si](C)(C)[C@@H]2[C@@H](CCO)O[C@]3(C(=O)N(Cc4ccccc4)c4ccc(N5C(=O)COc6ccccc65)cc43)[C@H]2C)cc1
6. NC(=O)[C@@H]1[C@H]2C(=O)O[C@H](c3ccccc3)[C@H](c3ccccc3)N2[C@H](c2ccccc2OCCO)[C@@]12C(=O)Nc1ccc(C#CCCO)cc12

Output:
1. 1.43
2. -2.01
3. 1.02
4. 1.2
5. 0.0717
6. 0.118

Task: # query: composite z-score of entry "C[N+](C)(C)CCCCCCNC(=O)[C@@H]1C[C@@H]2C(=O)NCC(=O)N2[C@@H]1c1ccc(O)cc1"
Output: 1.39
